assay-endpoint: melting point

[
  {
    "compound": "COc1ncnc2c1ncn2[C@H](C)[C@](O)(Cn1cncn1)c1ccc(F)cc1F",
    "result": "124 to 125 °C"
  },
  {
    "compound": "CC(=O)N1CCN(CCN2C=Cc3cc(S(N)(=O)=O)sc3S2(=O)=O)CC1",
    "result": "180 to 183 °C"
  },
  {
    "compound": "Cc1cn(C2OC(CO)C(O)C2F)c(=O)[nH]c1=O (centres undefined)",
    "result": "185 to 186 °C"
  },
  {
    "compound": "COc1c(C)cnc(Cn2cc(C#CCCCN3CCN(C)CC3)c3c(Cl)nc(N)nc32)c1C",
    "result": "160 to 162 °C"
  },
  {
    "compound": "O=C(O)CCC(=O)CCC(=O)Nc1ccc(Cc2ccc(NC(=O)CCC(=O)CCC(=O)O)cc2)cc1",
    "result": "158 to 160 °C"
  },
  {
    "compound": "CCOC(=O)CCCCC(=O)Oc1cccc(-c2cn3c(n2)sc2ccccc23)c1",
    "result": "90 to 92 °C"
  },
  {
    "compound": "CCN(CC)c1nc(N)c2ccccc2n1",
    "result": "125 to 128 °C"
  },
  {
    "compound": "CC(C)(C)OC(=O)NCc1[nH]c(C(=O)O)cc(=O)c1O",
    "result": "> 300 °C"
  },
  {
    "compound": "Cc1c2c(cc3ccc(O)cc13)-c1ccc(O)cc1CO2",
    "result": "224 to 226 °C"
  },
  {
    "compound": "Cc1nc(N2CCN(Cc3ccc(OC(F)(F)F)cc3)C2=O)sc1C(=O)NC[C@H](O)c1ccccc1",
    "result": "149 to 151 °C"
  },
  {
    "compound": "CCCOc1ccc(N(C)C)cc1-c1ncc(-c2nnn[nH]2)c(=O)[nH]1",
    "result": "258 to 259 °C"
  },
  {
    "compound": "C=CC(=O)NCc1c(-c2ccccc2)n[nH]c1C",
    "result": "191 to 193 °C"
  },
  {
    "compound": "O=C1c2ccc([N+](=O)[O-])cc2COc2cc(-n3cnnn3)ccc21",
    "result": "123 to 126 °C"
  },
  {
    "compound": "COc1ccccc1N1CCc2c(Cl)nc3c(OC)cccc3c21",
    "result": "99 to 101 °C"
  }
]

---

Property: melting point; scope: individual compounds
assay-endpoint: melting point

[
  {
    "compound": "Nc1ccc(C=C2c3ccccc3CCc3ccccc32)cc1",
    "assay-endpoint": "melting point",
    "result": "> 250 °C"
  },
  {
    "compound": "O=C(Nc1ccccc1)[NH+]([O-])Cc1ccncc1 (configuration not stated)",
    "assay-endpoint": "melting point",
    "result": "174 °C"
  },
  {
    "compound": "CCNC1([C@@H]2CCN(c3ccc4c(=O)c(C(=O)O)cn([C@@H]5C[C@@H]5F)c4c3C)C2)CC1",
    "assay-endpoint": "melting point",
    "result": "191 to 194 °C"
  },
  {
    "compound": "O=C1Cc2cc(CCN3CCN(c4nsc5ccccc45)CC3)c(Cl)cc2N1",
    "assay-endpoint": "melting point",
    "result": "218 to 220 °C"
  },
  {
    "compound": "CCCc1cc(CO)cc(=O)[nH]1",
    "assay-endpoint": "melting point",
    "result": "167 °C"
  },
  {
    "compound": "CN1CCN(c2cccc3c2C[C@H](NC(=O)c2ccccc2)CC3)CC1",
    "assay-endpoint": "melting point",
    "result": "195 to 196 °C"
  },
  {
    "compound": "O=C(O)CN1C(=O)C(c2ccccc2)SC1=S (configuration not stated)",
    "assay-endpoint": "melting point",
    "result": "158 to 159 °C"
  }
]
